# MEASURED_ON: human 5-HT1B receptor (Homo sapiens, UniProt P28222)
# Construct: host or cells: HEK293T
# Sequence (P28222 whole entry): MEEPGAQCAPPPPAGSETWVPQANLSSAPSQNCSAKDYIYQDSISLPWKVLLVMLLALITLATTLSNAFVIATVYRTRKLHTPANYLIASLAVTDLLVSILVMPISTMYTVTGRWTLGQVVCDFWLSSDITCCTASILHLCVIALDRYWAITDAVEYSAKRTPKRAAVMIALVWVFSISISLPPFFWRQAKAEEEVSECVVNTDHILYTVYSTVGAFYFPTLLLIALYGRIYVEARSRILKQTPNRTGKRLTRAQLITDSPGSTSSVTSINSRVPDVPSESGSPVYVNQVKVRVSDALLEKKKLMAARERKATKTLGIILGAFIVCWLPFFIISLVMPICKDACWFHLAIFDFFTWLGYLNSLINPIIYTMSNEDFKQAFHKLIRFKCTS
# PROCEDURE_DETAILS: cAMP accumulation (LANCE Ultra TR-FRET) in HEK293T cells, WT 5-HT1B
# Format: cell-based
# APPLIED_CONDITIONS: HEK-293T, read-out: 5-HT1B EMAX (%), WT receptor; normalized to basal (0%) and 10 μM 5-CT (100%)
MEASURED_METRIC: Emax (%)
Lab book: enter the figure in %, no units written.

Example results:
COMPOUND	Emax, %
CN(C)[C@H]1CCc2c(cccc2-c2cccc3ccccc23)C1 [(S)-NAP]	30
CCCN(CCC)[C@H]1CCc2cccc(O)c2C1 [(S)-8-OH-DPAT, reference compound]	85
CN(C)[C@H]1CCc2c(cccc2-c2c(F)cccc2F)C1	100
CN(C)[C@H]1CCc2c(cccc2-c2ccco2)C1 [(S)-FAT]	102
O=C1CCc2ccc(OCCCCN3CCN(c4cccc(Cl)c4Cl)CC3)cc2N1 [Aripiprazole, aripiprazole, reference compound]	99

Now for another entry.
So for CN(C)[C@H]1CCc2c(cccc2-c2cccs2)C1 [(S)-TAT] , the logged Emax turned out to be 85

---

# MEASURED_ON: human 5-HT1B receptor (Homo sapiens, UniProt P28222)
# Construct: host or cells: HEK293T
# PROCEDURE_DETAILS: cAMP accumulation (LANCE Ultra TR-FRET) in HEK293T cells, WT 5-HT1B
# Assay type: cell-based
# APPLIED_CONDITIONS: HEK-293T; read-out: 5-HT1B EMAX (%)
Collected Emax values appear next to each entry.
Note: unit % is implicit; provide only the numeric part.

Below are worked cases with known answers.
COMPOUND	TEST_RESULT
Fc1ccccc1-c1cccc2c1CC[C@H](N1CCCC1)C2 [(S)-PFPT]	99
O=C1CC2(CCCC2)CC(=O)N1CCCCN1CCN(c2ncccn2)CC1 [Buspirone, buspirone, reference compound]	45
Fc1ccccc1-c1cccc2c1CC[C@H](N1CCNCC1)C2 [FPIP]	99

Pending compound:
Documented Emax of CN(C)[C@H]1CCc2c(cccc2-c2cccc3c2oc2ccccc23)C1 [DBZ] : 93

---

# MEASURED_ON: human 5-HT1B receptor (Homo sapiens)
# Construct: host or cells: HEK293T
# PROCEDURE_DETAILS: cAMP accumulation (LANCE Ultra TR-FRET) in HEK293T cells, WT 5-HT1B
# Assay type: cell-based
# APPLIED_CONDITIONS: WT receptor; normalized to basal (0%) and 10 μM 5-CT (100%)
List of 5-HT1B EMAX (%) values.
Express it in %; write the number only.

Guide cases for 5-HT1B EMAX (%), answers given:
MOLECULE	5-HT1B EMAX (%)
CN(C)[C@H]1CCc2c(cccc2-c2cccn2C)C1 [(S)-NMP]	54
CCCN(CCC)[C@@H]1CCc2cccc(O)c2C1 [(R)-8-OH-DPAT, reference compound]	87
CN(C)[C@H]1CCc2c(cccc2-c2ccccc2)C1 [(S)-5-PAT]	28
CN(C)[C@H]1CCc2c(cccc2-c2ccccc2F)C1 [(S)-FPT]	100
NCCc1c[nH]c2ccc(C(N)=O)cc12 [5-CT, 5-carboxamidotryptamine, reference compound]	100
CCCN(CCC)[C@H]1CCc2c(cccc2-c2ccccc2Cl)C1 [(S)-DCPT]	103

// CN(C)[C@H]1CCc2c(cccc2-c2ccccc2Cl)C1 [(S)-CPT] : 5-HT1B EMAX (%) value = 100

Record CCCN(CCC)[C@H]1CCc2c(cccc2-c2ccccc2F)C1 [(S)-DFPT] , field 5-HT1B EMAX (%): 100

---

# MEASURED_ON: human 5-HT1A receptor (Homo sapiens)
# Construct: host or cells: HEK293T
# Sequence (P08908 1-422): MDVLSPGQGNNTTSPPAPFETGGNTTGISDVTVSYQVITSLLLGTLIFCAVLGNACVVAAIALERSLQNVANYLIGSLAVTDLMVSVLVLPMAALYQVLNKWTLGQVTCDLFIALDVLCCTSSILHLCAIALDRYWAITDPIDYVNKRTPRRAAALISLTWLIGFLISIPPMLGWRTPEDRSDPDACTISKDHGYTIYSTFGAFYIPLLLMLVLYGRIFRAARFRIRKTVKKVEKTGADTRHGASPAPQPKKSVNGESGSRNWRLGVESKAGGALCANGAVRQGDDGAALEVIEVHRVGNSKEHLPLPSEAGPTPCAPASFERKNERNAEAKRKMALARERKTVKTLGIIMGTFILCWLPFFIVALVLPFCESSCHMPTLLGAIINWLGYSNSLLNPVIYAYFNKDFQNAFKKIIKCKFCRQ
# PROCEDURE_DETAILS: cAMP accumulation (LANCE Ultra TR-FRET) in HEK293T cells, WT 5-HT1A
# Assay type: cell-based
# APPLIED_CONDITIONS: HEK-293T, read-out: 5-HT1A EMAX (%), WT receptor; normalized to basal (0%) and 10 μM 5-CT (100%)
# Method: Briefly, cells transfected with the desired receptor construct and compounds were incubated in the dark for 90 min at 37 °C. After incubation, cAMP detection reagents were added, and TR-FRET was used to quantify the cAMP produced. The functional activity of compounds was determined by stimulating cells expressing the desired receptor with FSK and test compound in parallel with 12 known concentrations of cAMP. […]
Parameter: Emax. Scope: all listed entries.
# output: bare number, implied unit %

MOLECULE	TEST_RESULT
CCCN(CCC)[C@H]1CCc2c(cccc2-c2ccccc2F)C1 [(S)-DFPT]	100
CCCN(CCC)[C@H]1CCc2c(cccc2-c2ccccc2Cl)C1 [(S)-DCPT]	92
CN(C)[C@H]1CCc2c(cccc2-c2cccc3ccccc23)C1 [(S)-NAP]	72
CN(C)[C@H]1CCc2c(cccc2-c2ccccc2F)C1 [(S)-FPT]	90
CN(C)[C@H]1CCc2c(cccc2-c2cccs2)C1 [(S)-TAT]	91
CN(C)[C@H]1CCc2c(cccc2-c2c(F)cccc2F)C1	98

Consider the record given below.
Form: molecule = CN(C)[C@H]1CCc2c(cccc2-c2ccccc2Cl)C1 [(S)-CPT] ; Emax = 91

---

# MEASURED_ON: human 5-HT1F receptor (Homo sapiens, UniProt P30939)
# Construct: host or cells: HEK293T
# Sequence (P30939 whole entry): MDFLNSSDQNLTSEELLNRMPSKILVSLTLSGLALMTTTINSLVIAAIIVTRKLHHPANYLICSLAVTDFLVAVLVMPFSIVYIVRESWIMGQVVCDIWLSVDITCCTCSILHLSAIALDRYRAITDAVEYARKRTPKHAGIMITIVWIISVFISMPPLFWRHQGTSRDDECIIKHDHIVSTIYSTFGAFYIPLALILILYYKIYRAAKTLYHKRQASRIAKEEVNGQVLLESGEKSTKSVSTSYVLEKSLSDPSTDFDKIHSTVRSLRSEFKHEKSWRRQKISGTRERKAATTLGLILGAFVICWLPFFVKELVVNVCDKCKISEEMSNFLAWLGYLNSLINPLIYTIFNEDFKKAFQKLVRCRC
# PROCEDURE_DETAILS: Radioligand binding (saturation and competition), WT 5-HT1F
# APPLIED_CONDITIONS: WT receptor; [^3H]5-HT competition; mean ± SD; read-out: Affinity (pKi ± SD) 5-HT1F (converted)
Entries and their Ki

Consider the worked cases shown below.
COMPOUND	Ki
Fc1ccccc1-c1cccc2c1CC[C@@H](N1CCCC1)C2 [(R)-PFPT]	> 10 µM
Fc1ccccc1-c1cccc2c1CC[C@H](N1CCCC1)C2 [(S)-PFPT]	> 10 µM

Ki of O=C1CC2(CCCC2)CC(=O)N1CCCCN1CCN(c2ncccn2)CC1 [Buspirone, buspirone, reference compound] , assay on human 5-HT1F receptor (Homo sapiens, UniProt P30939), is > 10 µM

---

# MEASURED_ON: human 5-HT1A receptor (Homo sapiens, UniProt P08908)
# Construct: host or cells: HEK293T
# PROCEDURE_DETAILS: Radioligand binding (saturation and competition), WT 5-HT1A
# APPLIED_CONDITIONS: Affinity (pKi ± SD) 5-HT1A, WT receptor; [^3H]5-CT competition; mean ± SD
MEASURED_METRIC: pKi
# pKi: negative log10 of molar concentration; output just the value

Some molecules with known pKi results, for comparison:
MOLECULE	pKi
CN(C)[C@H]1CCc2c(cccc2-c2cccs2)C1 [(S)-TAT]	8.21
CN(C)[C@@H]1CCc2c(cccc2-c2ccccc2Cl)C1 [(R)-CPT]	5.67
CCCN(CCC)[C@@H]1CCc2c(cccc2-c2ccccc2F)C1 [(R)-DFPT]	6.93

The value of pKi measured for the molecule CN(C)[C@@H]1CCc2c(cccc2-c2cccs2)C1 [(R)-TAT] turned out to be 5.82

In plain terms, CN(C)[C@@H]1CCc2c(cccc2-c2ccccc2)C1 [(R)-5-PAT] has a documented pKi of 5.98

// pKi value for CCCN(CCC)[C@H]1CCc2c(cccc2-c2ccccc2F)C1 [(S)-DFPT] : 8.84

pKi reported for this molecule CCCN(CCC)[C@H]1CCc2c(cccc2-c2ccccc2Cl)C1 [(S)-DCPT] : 8.85

pKi measured on CN(C)[C@H]1CCc2c(cccc2-c2cccc3ccccc23)C1 [(S)-NAP] = 7.21

get_value(item= CN(C)[C@@H]1CCc2c(cccc2-c2cccc3ccccc23)C1 [(R)-NAP] , readout=pKi) returns 6.58

---

# MEASURED_ON: human 5-HT1B receptor (Homo sapiens)
# Construct: host or cells: HEK293T
# PROCEDURE_DETAILS: cAMP accumulation (LANCE Ultra TR-FRET) in HEK293T cells, WT 5-HT1B
# Type: cell-based
# APPLIED_CONDITIONS: HEK-293T, read-out: 5-HT1B EMAX (%), WT receptor; normalized to basal (0%) and 10 μM 5-CT (100%)
MEASURED_METRIC: Emax

Some solved entries appear below for comparison.
COMPOUND	MEASURED_METRIC	TEST_RESULT
CCCN(CCC)[C@H]1CCc2c(cccc2-c2ccccc2Cl)C1 [(S)-DCPT]	Emax	> 90%
CN(C)[C@H]1CCc2c(cccc2-c2ccccc2Cl)C1 [(S)-CPT]	Emax	> 90%
CN(C)[C@H]1CCc2c(cccc2-c2ccccc2F)C1 [(S)-FPT]	Emax	> 90%

Item: CN(C)[C@H]1CCc2c(cccc2-c2ccccc2)C1 [(S)-5-PAT] | Emax: ~30%

Consider CCCN(CCC)[C@H]1CCc2c(cccc2-c2ccccc2F)C1 [(S)-DFPT] . Its measured Emax is > 90%
